Assay: RAM signaling pathway blockade in yeast – S. cerevisiae, Pdr1DBD-CYC8 efflux-inhibited sensitized strain, primary screen (AID 1298);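 note: 0% = DMSO untreated cells without growth and 100% = 10 µM 1-NA-PP1 full growth; higher means more yeast growth rescued from 5-FOA killing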
Settings: S. cerevisiae cbk1-as DSE1-URA3 strain, 5-FOA growth OD615, 2 d; at 50 µM; stronger effect = higher value
MEASURE_NAME: RAM network inhibition (%)
# unit: % | format: bare number

Answered examples (10):
MOLECULE	MEASURE_NAME	UNIT_SYMBOL	ENDPOINT_VALUE
CC(C)COC(=O)c1ccc(NC(=O)C2C3CCC(C3)C2C(=O)O)cc1 (stereo not drawn)	RAM network inhibition	%	0.37
O=C(O)CCC(=O)N1CCc2cc(S(=O)(=O)Nc3ccc4c(c3)OCCO4)ccc21	RAM network inhibition	%	-1.56
CC(=O)c1ccc(NC(=O)C2CCCN2S(=O)(=O)c2cccc3cccnc23)cc1 (stereo not drawn)	RAM network inhibition	%	5.11
CC(=O)c1cccc(NC(=O)C2CCCC2)c1	RAM network inhibition	%	-2.18
O=C(CCS(=O)(=O)c1cccs1)N1CCCC1	RAM network inhibition	%	1.19
O=C1Nc2ccccc2C(O)(C(=O)NCc2ccc3c(c2)OCO3)N1c1ccccc1 (stereo not drawn)	RAM network inhibition	%	0.05
CCN1CCN(c2cc(C)c3cc(NC(=O)c4cnccn4)ccc3n2)CC1	RAM network inhibition	%	-0.42
O=C(CSc1nc2ccccc2c(=O)n1-c1ccccc1)N1CCN(CCO)CC1	RAM network inhibition	%	1.04
CCCS(=O)(=O)c1nc(S(=O)(=O)c2ccc(C)cc2)c(N2CCCC2)s1	RAM network inhibition	%	10.2
Cc1ccc2[nH]c(=O)c(-c3noc(C(C)C)n3)cc2c1	RAM network inhibition	%	5.62

Record request: RAM network inhibition value, item CCOc1ccc(C2NC(=O)c3n[nH]c(C)c32)cc1 (stereo not drawn)
0.36

Given "Cc1cccc2sc(NC(=O)CCNS(=O)(=O)c3cccc4nonc34)nc12" , state its recorded RAM network inhibition.
7.24

---

Test: OD615 S. cerevisiae growth inhibition, permissive medium, pilot counter-assay, permissive growth control for S. cerevisiae lifespan shortening project (AID 705)
Conditions: OD615, 24 h, at 10 µM, stronger effect = higher value
# reported growth inhibition; entries follow
Lab book: enter the figure in %, no units written.

COMPOUND	ENDPOINT_VALUE
CN1CCN(C(=O)C2CCCCC2C(=O)O)CC1 (stereo not drawn)	0.81

Which growth inhibition is listed for "CCN(CC)C(=O)c1cc2sc3ccccc3c2s1" ?
-11.5

Bench note: what growth inhibition did "COCCCNC(=O)CN(c1ccc(Cl)c(Cl)c1)S(C)(=O)=O" show?
0.93

Item under review: "Cc1cc(NC(=O)CSc2nnc(Cn3c(=O)sc4ccccc43)n2-c2ccccc2C)no1" . Reported growth inhibition?
-0.97

Fill in the blank: the reported growth inhibition of "CCOC(=O)c1ccccc1Nc1cc(C)nc2nc(C)nn12" is ____.
-4.38

Please report the recorded growth inhibition for "CCn1c(=O)cc(OCC(=O)Nc2ccccc2C#N)c2ccccc21" .
-22.1

Look at this compound and give its reported growth inhibition. "CC1(C)CC(=O)C=C(NCCN2CCN(C(=O)Nc3ccc(Cl)cc3)CC2)C1"
-1.03

I have this compound here, "Cc1csc2ncc(C(=O)NCc3ccccn3)c(=O)n12" , and I need its recorded growth inhibition.
-10.9

Name the reported growth inhibition value associated with the compound "O=C(COC(=O)c1cnccn1)c1ccc(Br)cc1"
-9.27

Please report the recorded growth inhibition for "Cc1c(C(=O)NCCN2CCOCC2)oc2ccc(S(=O)(=O)N3CCCCCC3)cc12" .
-3.55

Would you mind telling me what growth inhibition value was observed for "CCOc1ncccc1C(=O)OCC(=O)Nc1cc(C(=O)OC)ccc1C(=O)OC" ?
-16.9

Name the recorded growth inhibition for COc1cc(C2NC(=O)NC(C)=C2C(=O)OCc2ccc(C)cc2)cc(OC)c1O (stereo not drawn) .
-12.9

---

Test: OD615 S. cerevisiae growth inhibition, permissive medium, pilot counter-assay, permissive growth control for S. cerevisiae lifespan shortening project (AID 705)
Details: OD615, 24 h, at 10 µM, stronger effect = higher value
MEASURE_NAME: growth inhibition (%)
Response body: numeric value in %, unit text excluded.

See these solved cases before continuing.
COMPOUND	growth inhibition, %
CCN1CCN(C(=O)Cn2ncc3c2-c2ccccc2OC3)CC1	0.755
O=C1N2CN(C(c3ccccc3)c3ccccc3)CN=C2SC1(CO)CO	-9.07
COc1ccc(-c2cn3c(C)c(C(=O)N4CCCc5ccccc54)sc3n2)cc1	0.505
Cc1ccc2cc(CCNC(=O)CC(C)C)c(=O)[nH]c2c1	-7.75

Given the compound "O=C(NCCCNC(=O)c1ccco1)c1ccco1" , what is its reported growth inhibition?
-0.405

Given the entry "O=C(CSC1=NS(=O)(=O)c2ccccc21)Nc1ccccc1" , report its measured growth inhibition.
56.7

---

Assay: growth suppression of PTEN-deleted HCT116, pilot screen, cell-based, HCT116 clonal line, CellTiter-Glo (AID 824);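 note: 0% = 20 µM Hyamine control and 100% = vehicle cell control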
Details: 60 h, at 10 µM, stronger effect = lower value
Inconclusive results are not listed.
MEASURE_NAME: viability (%)
State just the number; it will be interpreted in %.

Reference set, count: 3
MOLECULE	viability [%]
COCC(=O)Nc1cc(C)c2c(=O)oc3ccccc3c2n1	94
CCN(CC)c1cccc(OC2=NS(=O)(=O)c3ccccc32)c1	97.8
Cc1cccc(-c2nc(CS(=O)CC(=O)N3CCc4ccccc4C3)c(C)o2)c1 (stereo unspecified)	88.8

Could you share which viability value was measured for "COC(=O)c1c(NC(=O)CCCC(=O)O)sc(C)c1C" ?
87.9

Recorded viability for "CCOC(=O)c1ccc(NC(=O)CSc2nc(C)cc(=O)[nH]2)cc1" , please?
100

Record request: viability value, item "O=C(CN1CCN(c2ccccc2F)CC1)c1ccc2cc[nH]c2c1"
84.7

Item "Cc1c(Cl)cccc1NC(=O)CN1C(=O)CSc2ncccc21" has what recorded viability?
89.5

What value of viability has been recorded for this entry: "COC(=O)CCS(=O)(=O)c1cc(Cl)ccc1Cl"
94.9

---

Assay: Restrictive medium S. cerevisiae growth inhibition, OD615, pilot screen of yeast lifespan reduction project, restrictive growth control (AID 706);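 note: modified DeaD lifespan yeast strain shifted to restrictive glucose medium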
Details: OD615, 48 h, at 10 µM, stronger effect = higher value
Here, each record is paired with measured growth inhibition data.
Field: numeric (%). Do not append units.

The following molecules have reported results that may help.
MOLECULE	growth inhibition, %
CCN(CC)S(=O)(=O)c1cccc(-c2nnc(SCc3nnc(-c4cccs4)o3)n2N)c1	46.4
c1ccc2c(c1)[nH]c1nc3nncn3nc12	-14.9

# growth inhibition lookup, item CCOC(=O)CN1CC23C=CC(O2)C(C(=O)N2CCN(c4ccc(F)cc4)CC2)C3C1=O (stereo unspecified)
5.64

Can you share its growth inhibition? I mean this molecule: COc1ccc(-c2nc(CS(=O)CC(=O)NC3CCCc4ccccc43)c(C)o2)cc1OC (stereo unspecified)
3.54

Entry under review: "COC(=O)c1ccc(-c2nc(-c3cccs3)no2)cc1" . Reported growth inhibition?
10.5

Would you kindly share the measured growth inhibition for "COC(=O)C1=CN(C(C)C)C=C(C(=O)OC)C1c1cccc(OC)c1" ?
-9.06

Which growth inhibition reading was recorded for the molecule "CCOC(=O)c1c(NC(C)=O)no[n+]1[O-]" ?
-12.3

---

Test: inhibitors of the yeast RAM network, pilot screen, dse1pr::URA3 reporter, 5-FOA selection (AID 869);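 note: 0% = DMSO wells with no growth and 100% = 10 µM 1-NA-PP1 with full growth; RAM network block rescues cells from 5-FOA so hits raise OD615 growth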
Conditions: S. cerevisiae dse1pr::URA3 5-FOA growth, OD615, 2 d; at 10 µM; stronger effect = higher value; strain carries analog-sensitive mutant Cbk1 kinase
MEASURE_NAME: inhibition (%)
Value expressed in %; do not type the unit.

COMPOUND	UNIT_SYMBOL	ENDPOINT_VALUE
CC(=O)Nc1cc2c(cc1C(=O)c1ccccc1)OCCO2	%	1.35
CCOC(=O)C1=C(Nc2cccc(Cl)c2)OCC1=O	%	2.21
Cc1nc2ccc(S(=O)(=O)NC(C(=O)N3CCCCCC3)C(C)C)cc2s1 (stereo not drawn)	%	2.01

# input for lookup
I'd like to know its inhibition. The compound in question is "CCCN1CCN(C(=O)CCCn2c(C)c3cnn(-c4ccccc4)c(=O)c3c2C)CC1"
-0.215

---

Measured viability by item
Assay: growth suppression of PTEN-deleted HCT116, pilot screen, cell-based, HCT116 clonal line, CellTiter-Glo (AID 824);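 note: 0% = 20 µM Hyamine control and 100% = vehicle cell control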
Conditions: 60 h, at 10 µM, stronger effect = lower value
Inconclusive results are not listed.
Use % as the unit, but write only the number.

Here is how some compounds turned out for viability.
COMPOUND	MEASURE_NAME	UNIT_SYMBOL	ENDPOINT_VALUE
COCc1cc(C)nc2sc(C(=O)N3CCN(c4ccccc4)CC3)c(N)c12	viability	%	86.8
COc1ccc(NC(=O)CSc2nnc(-c3ccc(C)cc3)n2N)cc1	viability	%	92.8
c1ccc(N(c2ccccc2)c2nc(N3CCOCC3)nc(N3CCOCC3)n2)cc1	viability	%	89.9
COCC(C)NC(=O)c1ccc(N(C)C)cc1 (stereo not drawn)	viability	%	94.5
Cn1nc(-c2ccc(Cl)cc2)c2cc(C(=O)N3CCN(c4ccccn4)CC3)sc21	viability	%	35.1
COc1ccc(C2CC(=O)C3=C(C2)NC(C)=C(C#N)C3c2ccc(N(C)C)cc2)cc1 (stereo not drawn)	viability	%	75.8

# viability lookup, item "COc1ccc(C(=O)Nc2ccccc2C(=O)NCCCn2ccnc2)cc1"
92.9

// returns reported viability for input "CC(C)OCCCNC(=O)c1cc2c(=O)n(C)c3ccccc3c2n1C"
97

Record request: viability value, item "CC(=O)c1c(N(C)C)ccnc1C(F)(F)F"
95.4

Can you share its viability? I mean this compound: CCC(C)Nc1ncnc2c1cnn2Cc1ccc(Cl)cc1 (stereo not drawn)
86.7

Quick one: viability for COc1ccc(N2C(=O)C3CCCN3C2c2ccccc2OC)cc1 (stereo not drawn) ?
97.4
